Provenance of the data: patent US11780845B2

TESTED_TARGET: FGFR2 (Homo sapiens (Human), UniProt P21802)
Sequence (P21802 22-821): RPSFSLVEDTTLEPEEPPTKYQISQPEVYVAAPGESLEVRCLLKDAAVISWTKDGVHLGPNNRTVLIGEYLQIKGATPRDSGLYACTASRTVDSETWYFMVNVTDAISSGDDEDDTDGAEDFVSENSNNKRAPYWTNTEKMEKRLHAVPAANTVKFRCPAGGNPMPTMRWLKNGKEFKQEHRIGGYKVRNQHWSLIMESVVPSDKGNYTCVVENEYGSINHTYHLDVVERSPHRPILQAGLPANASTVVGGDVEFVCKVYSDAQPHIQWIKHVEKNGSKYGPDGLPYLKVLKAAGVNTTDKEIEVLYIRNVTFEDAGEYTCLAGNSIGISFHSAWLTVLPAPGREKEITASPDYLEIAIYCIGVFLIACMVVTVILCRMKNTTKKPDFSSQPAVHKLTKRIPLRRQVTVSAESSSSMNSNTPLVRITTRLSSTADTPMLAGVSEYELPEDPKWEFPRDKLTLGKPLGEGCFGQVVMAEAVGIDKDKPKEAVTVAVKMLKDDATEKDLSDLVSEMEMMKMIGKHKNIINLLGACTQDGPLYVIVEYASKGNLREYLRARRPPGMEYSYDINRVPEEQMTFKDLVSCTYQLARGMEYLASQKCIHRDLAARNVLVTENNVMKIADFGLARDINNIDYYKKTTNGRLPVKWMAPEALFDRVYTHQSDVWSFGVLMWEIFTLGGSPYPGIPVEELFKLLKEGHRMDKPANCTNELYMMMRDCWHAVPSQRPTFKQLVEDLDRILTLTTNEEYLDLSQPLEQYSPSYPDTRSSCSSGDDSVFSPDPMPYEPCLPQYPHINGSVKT
TEST_DESCRIPTION: FGFR2 Biochemical Caliper Assay
pIC50: −log10 of the molar value.
MEASUREMENT_NAME: pIC50

Below are worked cases with known answers.
C=CC(=O)N1CCC(c2c(-c3ccc(Cn4cccn4)cc3)c3c(N)ncnc3n2C)C1 (stereo not shown) [Example 772]: > 7.00
C=CC(=O)N1CC=C(c2c(-c3ccc(Oc4ccccn4)cc3)c3c(N)ncnc3n2C)CC1 [Example 681]: > 7.00

Q. Given the entry C=CC(=O)N1CCC(c2c(-c3ccc(Cn4ccccc4=O)cc3)c3c(N)ncnc3n2C)C1 (stereo not shown) [Example 794] , report its measured pIC50.
A. 4.00 to 6.00

Q. Given the entry C=C(C)C(=O)Nc1ccc(-c2c(-c3ccc(C(=O)NCC4CCC4)nc3)c3c(N)ncnc3n2C)cc1 [Example 399] , report its measured pIC50.
A. 6.60 to 7.00
